Origin of measurements: patent US6429188B1

- Test system: TNFα production in peritoneal murin macrophages stimulated with LPS
- TEST_DETAILS: Production of TNFα by peritoneal murine macrophages stimulated with LPS
- Type: cell-based, mouse
- MEASUREMENT_CONTEXT: peritoneal murin macrophages stimulated with LPS; read-out: IC50 for inhibition of TNFα production
READOUT_NAME: IC50

Quick one: IC50 for HSDAVFTDNYTRLRKMAVKKYLNSILN [VIP] ?
~0.08 nM
